biological target: Histamine H1 receptor (Rattus norvegicus, UniProt P31390)
Sequence (P31390 whole entry): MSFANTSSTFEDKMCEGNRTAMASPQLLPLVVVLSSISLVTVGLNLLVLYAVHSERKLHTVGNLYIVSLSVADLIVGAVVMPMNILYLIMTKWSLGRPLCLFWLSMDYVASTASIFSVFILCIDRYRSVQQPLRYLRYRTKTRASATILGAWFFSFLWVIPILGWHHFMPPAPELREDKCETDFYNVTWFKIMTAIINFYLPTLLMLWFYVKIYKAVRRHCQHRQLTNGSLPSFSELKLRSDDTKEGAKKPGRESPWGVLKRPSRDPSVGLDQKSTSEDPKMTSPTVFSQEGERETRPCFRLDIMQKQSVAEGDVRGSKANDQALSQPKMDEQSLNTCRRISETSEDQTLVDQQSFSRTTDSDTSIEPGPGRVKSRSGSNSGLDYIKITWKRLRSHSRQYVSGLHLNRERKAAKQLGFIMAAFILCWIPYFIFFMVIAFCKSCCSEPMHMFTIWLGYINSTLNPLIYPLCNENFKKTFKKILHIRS
// returns not met unless Ki is strictly below 200 nM, in which case met

Previously resolved entries follow.
CC(=O)N1CCC(=C2c3ccc(Cl)cc3CCc3cc(C=O)cnc32)CC1 ... not met
CC(=O)N1CCC(=C2c3ccc(Cl)cc3CCc3cc(Br)cnc32)CC1 ... met
CC(=O)N1CCC(=C2c3ccc(Cl)cc3CCc3c(O)ccnc32)CC1 ... not met
CSc1cnc2c(c1)CCc1cc(Cl)ccc1C2=C1CCN(C(C)=O)CC1 ... not met
CC(=O)c1cnc2c(c1)CCc1cc(Cl)ccc1C2=C1CCN(C(C)=O)CC1 ... not met
CC(=O)N1CCC(=C2c3ccc(Cl)cc3CCc3cc(CO)cnc32)CC1 ... met
CC(=O)N1CCC(=C2c3ccc(Cl)cc3CCc3ccc(O)nc32)CC1 ... not met
CC(=O)N1CCC(=C2c3ccc(Cl)cc3CCc3c(C)ccnc32)CC1 ... not met

Hello, is Ki of the following compound strictly smaller than 200 nM? CC(=O)N1CCC(=C2c3ccc(Cl)cc3CCc3cc(C)cnc32)CC1 met
